# System: MDA-MB-435
# assay: NCI tumour cell line growth inhibition, 48 h
recorded_endpoint: TGI

// solved cases for TGI follow
Cc1cn(C2CCN(CC3COC(C)(C)O3)O2)c(=O)[nH]c1=O (stereo unspecified)
> 100 µM
CN1CCN(Cc2nc3c(s2)CCc2sccc2-3)CC1
> 100 µM
COc1ccc(Cn2cc3c(c2-c2cc(OC)c(OC)c(OC)c2)CCc2c(CO)noc2-3)cc1
0.245 µM
O=c1[nH]nc(Cc2ccccc2)n1/N=C/c1ccc([N+](=O)[O-])cc1
> 100 µM
C=C1C(=O)C2=CC1CCC(=O)C1(C)CCC(OC(C)=O)C(C)(C)C1CC2O (stereo unspecified)
26 µM
CCOC(=O)/C(=C\NC(C)(C)CO)c1nc2ccccc2[nH]1
> 100 µM

For every item below, please supply its TGI.
1. O=[N+]([O-])C(/C=C(\Cl)[N+](=O)[O-])=C(N1CCCCC1)N1CCCCC1
2. C/C=C\C(CC(=O)OC)CC(=O)N(CCC1CN(S(=O)(=O)C(F)(F)F)c2ccccc21)Cc1ccc(OC)cc1OC (stereo unspecified)
3. N#CC1=C(N)Oc2c(sc3c(Br)cccc23)C1c1ccc(Cl)cc1 (stereo unspecified)
4. CN(C)c1ccc(/C=C(\NC(=O)c2ccccc2)C(=O)Nc2cccc(C(=O)NCCCO)c2)cc1
5. COP(=O)(OC)[C@H](O)[C@H]1C[C@@H]1c1ccccc1
6. Cc1cc(=O)n2c3c(c4c(cc13)c(CN(C)C)cc(=O)n4C)OC2
7. Cc1ccc(C(=O)Oc2ccc(/C=C3\CCC/C(=C\c4ccc(OC(=O)c5ccc(C)cc5)cc4)C3=O)cc2)cc1
8. O=C1c2cc(F)ccc2-c2c1c1ccc([N+](=O)[O-])cc1c(=O)n2CCCBr

Reply text:
30.6 µM
> 100 µM
1.01 µM
> 100 µM
> 100 µM
> 58.2 µM
> 100 µM
> 100 µM

Items follow; give TGI for each.
1. CC/C=C\C[C@H](O)C/C=C1/C(=O)C=C[C@@H]1C/C=C\CCCCO
2. CN(C)CCS(=O)(=O)Nc1cc(-c2ccc3ncc(C#N)c(Nc4ccc(F)c(Cl)c4)c3c2)cnc1Cl
3. O=C1C=C(c2ccccc2)O/C1=C\C(=O)c1ccc(Cl)cc1
4. CCC1CCC2c3c([nH]c4ccc(C)cc34)C3C(=O)N(N(C)C)C(=O)C3C2C1 (stereo unspecified)
5. Cc1ccc2c3c1[C@@H]1O[C@@H]1c1cccc(c1-3)[C@@H]1O[C@H]21

Reply text:
15.8 µM
3 µM
29.8 µM
> 33.4 µM
31.4 µM

Give one value of TGI per listed molecule.
1. COC(=O)[C@]12CSC[C@H]1C[C@H](c1cccc3ccccc13)N2
2. CC(=O)OCC1OC(n2ncc(=O)[nH]c2=O)C(OC(C)=O)C1OC(C)=O (stereo unspecified)
3. O=C(O)Cc1ccc(N=Nc2c(O)c(C(=O)O)cc3ccccc23)cc1
4. CNC(=O)c1cccc(C#Cc2cncnc2Nc2ccc(OCc3cccc(F)c3)c(Cl)c2)c1
5. CCOC(=O)c1sc2nc1CSc1sc(=S)sc1SCc1nc(sc1C(=O)OCC)-c1nc(c(C(=O)OCC)s1)CSc1sc(=S)sc1SCc1nc-2sc1C(=O)OCC
6. Cn1c(=O)ccc2c(=O)c3ccccc3oc21
7. CCOC(=O)c1cc(NS(=O)(=O)c2ccc(C)cc2)cc(C(=O)OCC)c1

Reply text:
["> 100 µM", "> 100 µM", "> 100 µM", "> 25 µM", "> 10 µM", "> 100 µM", "> 100 µM"]

Quick one: give me TGI for each item below, same order please.
1. COc1cc(CCNC(=O)OC(C)(C)C)c2c(c1OC)SSSSS2
2. Cc1ccsc1C(=S)Nc1ccc(Cl)c(/C=N/OC(C)C)c1
3. CN1C(=O)C2(c3ccccc31)C1CC3C(CO1)C1C2C3(CO)CN1C#N (stereo unspecified)
4. NC(=O)CCC(NC(=O)c1c2ccccc2nc2ccccc12)C(=O)O (stereo unspecified)
5. Cn1cc(-c2nnc(-c3ccc(Cl)cc3)[nH]c2=O)c2ccccc21
6. Cc1cn(Cc2cn(CC3OC(n4cc(C)c(=O)[nH]c4=O)CC3O)nn2)c(=O)[nH]c1=O (stereo unspecified)

Reply text:
["4.78 µM", "> 100 µM", "> 100 µM", "> 100 µM", "1.4 µM", "> 100 µM"]

// for each molecule in input: emit TGI
1. COc1cc2c(c(OC)c1OC)-c1c(c3ccc([N+](=O)[O-])cc3c(=O)n1CCCN)C2=O
2. O=C1NC(=NCCc2ccccn2)S/C1=C\c1ccc2ncccc2c1
3. CC(=O)Nc1cc2nc3n(c2cc1C)CCC3OC(C)=O (stereo unspecified)

Reply text:
1.63 µM
> 25 µM
> 100 µM

For every item below, please supply its TGI.
1. COc1ccc(-c2nc3c(C(=O)NCCN(C)C)cccc3c3ccccc23)cc1
2. CC(=O)N[C@@H](Cc1ccc(OP(=O)(O)O)cc1)C(=O)N[C@H]1CCC(=O)N2CCC[C@@H](C(=O)NCc3ccccc3)N2C1=O
3. CC(C)C(=O)c1c(C(F)(F)F)n([O-])c2ccccc2[n+]1=O
4. CC1=N[C@@](C)(C2CC3C=CC2C3=O)COC1=O (stereo partly specified)
5. O=C(O)CCCN=C(C1=C(O)C(=O)N(c2ccccc2)C1=O)c1ccccc1
6. CCC12C=CCN3CCC4(c5cc(C(c6ccc(OC)cc6)C6Cc7ccccc7N6)c(OC)cc5N(C)C4C(O)(C(=O)OC)C1O)C32 (stereo unspecified)

Reply text:
1: 5.16 µM; 2: > 25 µM; 3: 3.45 µM; 4: > 100 µM; 5: > 100 µM; 6: 80.4 µM

---

For each of the molecules below, state its GI50.
# System: M14 melanoma
# assay: NCI tumour cell line growth inhibition, 48 h

COc1cc(/C=C/C(=O)c2c(-c3ccc(F)cc3)nc3sc(C)nn23)cc(OC)c1OC
3.05 µM
Cc1ccccc1C(C(=O)NC1CCCCC1)N(C(=O)CNc1ccc(C#N)cc1)c1cccc(F)c1 (centres undefined)
80.9 µM
O=S(=O)(NCCCNc1cc(-c2cn(-c3ccccc3)nc2-c2cccc(O)c2)ccn1)c1ccc(Br)cc1
1.78 µM

Now examine the next entry.
Inquiry: Give GI50 (M14 melanoma) of the following molecule: "Nc1ncn([C@H]2C[C@H](OP(=O)(O)OC[C@H]3O[C@@H](n4cnc5c(=O)[nH]c(N)nc54)C[C@@H]3O)[C@@H](CO)O2)c(=O)n1"
Reply text: > 100 µM

---

Answer each item with its documented GI50.
# System: CAKI-1 renal
# assay: NCI tumour cell line growth inhibition, 48 h

Solved cases (4 shown):
C=C1CC2C3C=C(C)C4=CC(=O)CC[C@]4(C)C3CC[C@]2(C)[C@@]1(OC(C)=O)C(C)=O (stereo not given in full)
2.96 µM
NCCSC(c1ccccc1)(c1ccccc1)c1ccccc1
3.51 µM
O=S(=O)(NCCCNc1cc(-c2cn(-c3ccccc3)nc2-c2cccc(O)c2)ccn1)c1ccc(Br)cc1
2.25 µM
CN(C)C=Nc1c(I)cc(I)c(CCC(=O)O)c1I
> 100 µM

Inquiry: Item "Cn1cc(C2=C(c3cn(CCCCCO)c4ccccc34)C(=O)NC2=O)c2ccccc21" has what recorded GI50?
Reply text: 6.34 µM

---

# System: TK-10 renal
# assay: NCI tumour cell line growth inhibition, 48 h
Where a SMILES comes first, the peptide text is derived from it.
Give measured TGI for each item. Keep answers brief.

Here is how some compounds turned out for TGI.
CCOC(=O)C1(N)CC1
> 100 µM
COc1cc(/C=C/C(=O)c2c(-c3ccc(F)cc3)nc3sc(C)nn23)cc(OC)c1OC
8.14 µM
Cn1cc(-c2nnc(-c3ccc(Cl)cc3)[nH]c2=O)c2ccccc21
42.7 µM
CN(C)CCNC(=O)c1ccc2oc3cc4ccccc4c(=O)n3c2c1
72.3 µM
Cc1cn(Cc2cn(CC3OC(n4cc(C)c(=O)[nH]c4=O)CC3O)nn2)c(=O)[nH]c1=O (centres undefined)
> 100 µM
CCC(C)C(NC(=O)C(CC(C)C)NC(=O)CNC(=O)C(NC(=O)C1CCCN1C(=O)C(CC(C)C)NC(=O)C(N)Cc1ccccc1)C(C)CC)C(=O)NC(CC(C)C)C(N)=O (centres undefined) (H-FLPIGLIL-NH2; configuration not given here)
> 75 µM
Cc1cn(C2CCN(CC3COC(C)(C)O3)O2)c(=O)[nH]c1=O (centres undefined)
> 100 µM
CC(C)C(Sc1nc(-c2ccccc2)c(-c2ccccc2)[nH]1)c1n[nH]c(=S)n1-c1ccccc1 (centres undefined)
> 100 µM

Inquiry: # get_value(readout='TGI', item= "O=[N+]([O-])/C(Cl)=C/C(=C1/Nc2ccccc2O1)[N+](=O)[O-]" )
Reply text: > 100 µM
